Protocol notes: Quantitative High-Throughput drug screen in 47 multiple myeloma cell lines against the NCATS MIPE library collection: VP6_DJ cell viability assay (AID 1919867); also: nearly all actives have a fitted effect of over 40% in size
Conditions: ATP luminescence, 48 h; series mostly up to 45.8 µM
Records with an inconclusive call do not appear. Activity calls are given as the source filed them. Calls follow the shape of the dose curve; as a rule, active = well fitted cell-killing curve with a large enough effect; inconclusive = small, poorly fitted or top-dose-only effect, or effect the other way; inactive = no such curve, though single readings can be large or run the other way.
Bench note: report the call from True for active, False for inactive

Record excerpt, results attached:
molecule="COc1cccc(OC)c1-c1cc(C(=O)NC2(C(=O)O)C3CC4CC(C3)CC2C4)nn1-c1ccnc2cc(Cl)ccc12 (stereo not given)" label=False
molecule=CN1CCN(c2cccc(Nc3nc4c(-c5ccc(S(C)(=O)=O)cc5)cccn4n3)c2)CC1 label=True
molecule=Cc1c(-c2cccc3c(CCCOc4cccc5ccccc45)c(C(=O)O)n(Cc4cccnc4)c23)c(COc2ccc(N3CCN([S+](=O)([O-])N(C)C)CC3)cc2)nn1C label=True
molecule=COc1cc2ncnc(Nc3cc(Br)c(O)c(Br)c3)c2cc1OC label=True

Next:
Hey, what did the test say about `O=S(=O)(NCCNCC=Cc1ccc(Br)cc1)c1cccc2cnccc12` ?
True

----------
Protocol notes: qHTS profiling of the MIPE4 collection as inhibitors of Plasmodium falciparum (DD2) proliferation (AID 743345)
Conditions: P. falciparum Dd2 in erythrocytes, SYBR Green DNA, 72 h; at 28.5 µM (top of the series) unless noted
param class (str): category from parasite growth remaining, % of DMSO control (lower = more inhibition); see ranges band 1 (below 30%), band 2 (30% to below 90%), band 3 (90% or more)

Which class is correct for the following molecule? CCCCCOC(=O)Nc1nc(=O)n([C@@H]2O[C@H](C)[C@@H](O)C2O)cc1F (stereo not given in full)
band 3

Which class is correct for the following molecule? `CCOC(=O)[C@H]1O[C@H]1C(=O)N[C@@H](CC(C)C)C(=O)NCCC(C)C`
band 1

Which class is correct for the following molecule? CN(C(Cc1ccc(OS(=O)(=O)c2cccc3cnccc23)cc1)C(=O)N1CCN(c2ccccc2)CC1)S(=O)(=O)c1cccc2cnccc12 (stereo not given)
band 1

Which class is correct for the following molecule? Cc1cc2nc3c(=O)[nH]c(=O)nc-3n(CC(O)C(O)C(O)CO)c2cc1C (stereo not given)
band 2

----------
Measured on: Cytochrome P450 2C9 (Homo sapiens) (UniProt P11712)
Sequence (P11712 whole entry, looked up): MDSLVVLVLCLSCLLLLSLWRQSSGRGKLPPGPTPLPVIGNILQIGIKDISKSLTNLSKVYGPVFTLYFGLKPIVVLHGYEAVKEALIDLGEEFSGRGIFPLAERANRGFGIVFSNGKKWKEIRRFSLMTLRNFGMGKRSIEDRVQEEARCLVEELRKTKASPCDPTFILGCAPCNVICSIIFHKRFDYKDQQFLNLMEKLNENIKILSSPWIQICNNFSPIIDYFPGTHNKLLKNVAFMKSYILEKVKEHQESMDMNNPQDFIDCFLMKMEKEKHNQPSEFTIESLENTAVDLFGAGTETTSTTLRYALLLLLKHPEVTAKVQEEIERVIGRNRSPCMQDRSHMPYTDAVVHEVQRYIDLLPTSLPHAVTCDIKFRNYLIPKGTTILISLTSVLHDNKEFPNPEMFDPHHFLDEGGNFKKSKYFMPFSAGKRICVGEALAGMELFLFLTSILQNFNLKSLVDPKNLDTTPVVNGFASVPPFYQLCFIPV
Protocol notes: Cytochrome P450 family 2 subfamily C member 9 (CYP2C9) small molecule antagonists: luciferase biochemical (cell-free) qHTS assay (AID 1645842); also: nearly all actives have a fitted effect of over 55% in size
Conditions: P450-Glo CYP2C9 enzyme assay, luciferin luminescence; series mostly up to 57.4 µM
Records with an inconclusive call do not appear. Active and inactive are the calls of the source. Calls follow the shape of the dose curve; as a rule, active = well fitted inhibition curve with a large enough effect in the repeat runs; inconclusive = weak or mixed curves; inactive = no such curve, though single readings can be large or run the other way.
Bench note: report the call from yes for active, no for inactive

Record excerpt, results attached:
compound=O=C(Nc1cccc2c(=O)cc(-c3nn[nH]n3)oc12)c1ccc(OCCCCc2ccccc2)cc1 label=yes
compound=CC(C)CNc1ccnc(NCc2csc(-c3ccccc3)n2)n1 label=yes
compound=Cc1cnc(Nc2cccc(CN3CCOCC3)c2)nc1Nc1cccc(S(=O)(=O)NC(C)(C)C)c1 label=yes
compound="Cc1ccccc1C(C(=O)NC1CCCCC1)N(C(=O)CNc1ccc(C#N)cc1)c1cccc(F)c1 (stereo not drawn)" label=yes
compound=CCNC(=O)c1noc(-c2cc(C(C)C)c(O)cc2O)c1-c1ccc(CN2CCOCC2)cc1 label=yes
compound=COc1ccc(CCC(=O)Nc2nc3ccc(Cl)cc3s2)cc1OC label=yes
compound=CC(C)CN(C[C@@H](O)[C@H](Cc1ccccc1)NC(=O)O[C@H]1CO[C@H]2OCC[C@H]21)S(=O)(=O)c1ccc(N)cc1 label=yes
compound=C[C@@H]1CCO[C@H]2Cn3cc(C(=O)NCc4ccc(F)cc4F)c(=O)c(O)c3C(=O)N12 label=no
compound=Cn1cnc(-c2cc3nccc(Oc4ccc(NC(=S)NC(=O)Cc5ccccc5)cc4F)c3s2)c1 label=yes
compound=CNC(=O)[C@H](Cc1ccccc1)NC(=O)[C@H](CC(C)C)[C@H](CSc1cccs1)C(=O)NO label=no

Hey, what did the test say about O[C@@H](COc1cccc2ncccc12)CN1CCN(C2c3ccccc3[C@@H]3[C@H](c4ccccc42)C3(F)F)CC1 (stereo partly drawn) ?
yes

Hey, what did the test say about `COc1ccc(C=CC(=O)Nc2ccccc2C(=O)O)cc1OC` ?
yes

Hey, what did the test say about `Cc1cnc(CNC(=O)c2c(=O)c3ccc(N4CCCN(C)CC4)nc3n3c2sc2ccccc23)cn1` ?
no

Hey, what did the test say about `O=C(CO)N1CCC(c2[nH]nc(-c3ccc(Cl)cc3)c2-c2ccncn2)CC1` ?
yes

Hey, what did the test say about O=C(CCCN1CCN(c2ccc(F)cc2)CC1)NC1c2ccccc2CSc2ccccc21 (stereo not drawn) ?
yes

Hey, what did the test say about `Cc1cn([C@@H]2C[C@@H](O)[C@H](CO)O2)c(=O)[nH]c1=O` ?
no

Hey, what did the test say about `O=S(=O)(O)c1ccc2cc(N=Nc3cc(S(=O)(=O)O)c4cccnc4c3O)ccc2c1` ?
no

Hey, what did the test say about `CC(C)C[C@@H](C(=O)N[C@H](C(=O)OC1CCCC1)c1ccccc1)[C@H](O)C(=O)NO` ?
yes

----------
Protocol notes: Quantitative High-Throughput drug screen in 47 multiple myeloma cell lines against the NCATS MIPE library collection: ARP1_JJKsccF8 cell viability assay (AID 1918928; also: nearly all actives have a fitted effect of over 40% in size; also: potency is read from the fitted curve at half-maximal effect;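 as to viability: 100% = DMSO only wells and 0% = medium only wells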)
Conditions: ARP1 myeloma cells viability, CellTiter-Glo ATP, 48 h; series mostly up to 45.8 µM
Results filed as inconclusive are left out. Calls of active or inactive are those of the source. Calls follow the shape of the dose curve; as a rule, active = well fitted cell-killing curve with a large enough effect; inconclusive = small, poorly fitted or top-dose-only effect, or effect the other way; inactive = no such curve, though single readings can be large or run the other way.
Metric: Potency

molecule=CNC(=O)[C@H](CC1=CN=C2C=CCC=C12)NC(=O)[C@@H](CC(=O)NO)CC(C)C metric=Potency result=inactive
molecule=C[C@]12CCC3=C4CCC(=O)C=C4CC[C@@H]3[C@H]1CC[C@@]2(O)CC#N metric=Potency result=inactive
molecule=CCCCC[C@H](O)C=C[C@H]1[C@H](O)CC(=O)[C@H]1CCCCCCC(=O)O metric=Potency result="23.5 µM (active)"
molecule="NCC1CCC(C(=O)O)CC1 (stereo unspecified)" metric=Potency result=inactive
molecule=COc1ccc2nc3cc(Cl)ccc3c(Nc3cc(CN4CCCC4)c(O)c(CN4CCCC4)c3)c2n1 metric=Potency result="29.6 µM (active)"
molecule=O=C(Nc1ccccc1)Nc1ccc(-c2ccc(C(=O)[C@H]3CCC[C@H]3C(=O)O)cc2)cc1 metric=Potency result=inactive
molecule=CC(C)C[C@@H](C(=O)N[C@H](C(=O)OC1CCCC1)c1ccccc1)[C@H](O)C(=O)NO metric=Potency result="14.8 µM (active)"
molecule=C[C@H](c1ccc(F)cc1CCCC(=O)O)N(c1cc(F)ccc1F)S(=O)(=O)c1ccc(Cl)cc1 metric=Potency result="0.935 µM (active)"

Tell me Potency reported for `O=C1CCCC(=O)C1C(=O)c1ccc(C(F)(F)F)cc1[N+](=O)[O-]`
inactive

Tell me Potency reported for `N#CC(=C1Nc2ccccc2S1)c1ccnc(OCc2ccc(CN3CCOCC3)cc2)n1`
23.5 µM (active)

Tell me Potency reported for `NC1(C(=O)N[C@@H](CCO)c2ccc(Cl)cc2)CCN(c2ncnc3[nH]ccc23)CC1`
2.09 µM (active)

Tell me Potency reported for `COc1ccc(-c2cc3nccn3c(Nc3ncccc3C(N)=O)n2)cc1OC`
4.69 µM (active)

Tell me Potency reported for `Cc1cccc(Nc2nc(N[C@@H]3CCCC[C@H]3N)ncc2C(N)=O)c1`
16.6 µM (active)

Tell me Potency reported for `CC(=O)NCCC(=O)N[C@@H](CCC(N)=O)C(=O)N[C@@H](CO)C(=O)N[C@@H](CCC(N)=O)C(=O)N[C@@H](CCC(N)=O)C(=O)N[C@H](C(=O)N[C@@H](Cc1ccccc1)C(=O)N[C@]1(C)CCCCCCC=CCCC[C@@](C)(C(=O)N[C@@H](CCC(N)=O)C(=O)N[C@@H](CC(N)=O)C(N)=O)NC(=O)[C@H](CC(C)C)NC(=O)[C@H](CC(C)C)NC(=O)[C@@H](CCCNC(=N)N)NC(=O)[C@H](Cc2c[nH]c3ccccc23)NC(=O)[C@H](CC(C)C)NC(=O)[C@H](CC(N)=O)NC1=O)[C@H](C)O`
20.9 µM (active)

Tell me Potency reported for `O=C(c1ccc(C=Cc2n[nH]c3ccccc23)cc1)N1CCNCC1`
13.2 µM (active)

Tell me Potency reported for `C[C@H](CCC(=O)O)[C@H]1CC[C@H]2[C@H]3[C@@H](CC[C@]12C)[C@@]1(C)CC[C@@H](O)C[C@H]1C[C@@H]3O`
1.48 µM (active)

Tell me Potency reported for CCNC(=O)CCCC=CC[C@@H]1[C@H](C=CC(O)CCc2ccccc2)[C@@H](O)C[C@@H]1O (stereo partly specified)
10.5 µM (active)

Tell me Potency reported for `NC(N)=Nc1nc(CSCCC(N)=NS(N)(=O)=O)cs1`
inactive

Tell me Potency reported for `O=C(O)c1nc(=O)[nH]c(=O)[nH]1`
inactive

Cited source: PubChem BioAssay (NCATS)
